Each entry below lists one item and its recorded pIC50 value.
# TGT: wt human TYK2, catalytic site (Homo sapiens)
# Construct: wt human TYK2, catalytic site
# Sequence (P29597 897-1176 limits assumed): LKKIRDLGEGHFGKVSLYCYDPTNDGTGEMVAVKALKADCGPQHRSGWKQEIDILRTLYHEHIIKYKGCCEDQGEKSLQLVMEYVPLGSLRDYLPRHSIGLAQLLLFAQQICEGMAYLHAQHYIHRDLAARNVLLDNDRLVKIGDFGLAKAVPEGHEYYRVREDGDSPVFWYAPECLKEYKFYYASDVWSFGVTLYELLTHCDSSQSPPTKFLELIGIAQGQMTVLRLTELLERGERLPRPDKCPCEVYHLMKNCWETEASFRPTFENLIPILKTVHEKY
# ASSAY PROTOCOL: HTRF KinEASE assay, TYK2
# SETTINGS: 1 μM ATP; read-out: IC50, Activity Toward TYK2
pIC50: −log10 of the molar value.

// solved cases for pIC50 follow
[[record]]
molecule = "N#Cc1cccc(Cl)c1-n1cc(Nc2ccc(C(=O)N3CCS(=O)(=O)CC3)cc2)c(C(N)=O)n1 [compound 457]"
tgt = "wt human TYK2, catalytic site (Homo sapiens)"
value = "> 8.00"

[[record]]
molecule = "Cn1nc(C(F)(F)F)nc1-c1ccc(Nc2cn(-c3c(F)cccc3F)nc2C(N)=O)cc1 [compound 285]"
tgt = "wt human TYK2, catalytic site (Homo sapiens)"
value = "7.00 to 8.00"

[[record]]
molecule = "NC(=O)c1nn(-c2c(F)cccc2Cl)cc1Nc1ccc(C(=O)N2CCOCC2)cc1 [compound 22]"
tgt = "wt human TYK2, catalytic site (Homo sapiens)"
value = "> 8.00"

[[record]]
molecule = "CCc1ncnn1-c1ccc(Nc2cn(-c3c(Cl)cccc3Cl)nc2C(N)=O)cn1 [compound 343]"
tgt = "wt human TYK2, catalytic site (Homo sapiens)"
value = "6.00 to 7.00"

[[record]]
molecule = "NC(=O)c1nn(-c2c(Cl)cccc2Cl)cc1Nc1ccc(C(=O)NC2CCCNC2)cc1 (centres unmarked) [compound 39]"
tgt = "wt human TYK2, catalytic site (Homo sapiens)"
value = "6.00 to 7.00"


-- ask Name the recorded pIC50 for NC(=O)c1nn(-c2c(Cl)cccc2Cl)cc1Nc1ccc(C(=O)N2CC[C@@H](N3CCCC3)C2)nc1 [compound 356] .
-- reply 7.00 to 8.00

-- ask Another molecule: Cc1ncnn1-c1ccc(Nc2nn(-c3c(Cl)cccc3Cl)nc2C(N)=O)nc1 [compound 156]
-- reply 7.00 to 8.00

-- ask Same thing, different molecule: NC(=O)c1nn(-c2c(Cl)cccc2Cl)cc1Nc1ccc(-n2nncc2C(F)(F)F)cc1 [compound 438]
-- reply 7.00 to 8.00
